Here the recorded IC50 is given for each entry.
- test-system: Metabotropic glutamate receptor 3 (Homo sapiens, UniProt Q14832)
- Sequence (Q14832 whole entry): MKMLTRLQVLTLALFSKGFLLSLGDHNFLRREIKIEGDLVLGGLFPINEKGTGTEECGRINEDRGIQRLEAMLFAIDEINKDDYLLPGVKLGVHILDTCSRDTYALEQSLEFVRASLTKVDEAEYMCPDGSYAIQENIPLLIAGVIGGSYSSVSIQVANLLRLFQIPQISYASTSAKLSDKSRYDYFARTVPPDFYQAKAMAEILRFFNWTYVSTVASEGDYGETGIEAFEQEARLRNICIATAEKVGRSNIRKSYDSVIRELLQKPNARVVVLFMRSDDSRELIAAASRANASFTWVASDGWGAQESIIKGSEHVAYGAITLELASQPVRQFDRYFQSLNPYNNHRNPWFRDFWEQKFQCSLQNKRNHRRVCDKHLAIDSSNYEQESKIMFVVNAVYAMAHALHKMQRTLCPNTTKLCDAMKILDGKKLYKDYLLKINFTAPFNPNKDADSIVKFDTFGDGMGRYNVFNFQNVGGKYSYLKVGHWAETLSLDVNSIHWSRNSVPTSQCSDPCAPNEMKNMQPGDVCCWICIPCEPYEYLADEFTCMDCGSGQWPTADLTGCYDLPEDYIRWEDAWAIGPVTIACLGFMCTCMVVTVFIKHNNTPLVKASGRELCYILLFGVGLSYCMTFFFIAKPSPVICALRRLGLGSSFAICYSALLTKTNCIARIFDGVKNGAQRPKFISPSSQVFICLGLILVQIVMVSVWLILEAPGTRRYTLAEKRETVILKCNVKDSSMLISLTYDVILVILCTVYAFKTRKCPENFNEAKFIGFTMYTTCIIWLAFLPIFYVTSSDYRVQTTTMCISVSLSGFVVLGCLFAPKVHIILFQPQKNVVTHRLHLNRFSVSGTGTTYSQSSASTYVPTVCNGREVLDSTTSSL
- protocol-summary: In vitro antagonist activity at recombinant human Metabotropic glutamate receptor 3 expressed in RGT cells.
Respond numerically; units are µM and should not be typed.

Recorded IC50, per entry:
N[C@]1(C(=O)O)C[C@H](C(=O)O)N(Cc2ccccc2-c2ccccc2)C1 (stereo in doubt; 7o); 16.1
N[C@]1(C(=O)O)C[C@H](C(=O)O)N(Cc2cccc3ccccc23)C1; 8.58
N[C@]1(C(=O)O)C[C@H](C(=O)O)N(CC(c2ccccc2)c2ccccc2)C1; 63.6

Query: Quick one: IC50 for N[C@]1(C(=O)O)C[C@H](C(=O)O)N(CCc2ccccc2)C1 ?
Reply: 166

The measurements presented in this section are drawn from ChEMBL document CHEMBL1130904.
